quantity.name: melting point

INSERT INTO results (compound, result_value) VALUES
  ('CN1C(=O)C(CCCCNC(=O)OCc2ccccc2)NC1=S (stereo not given)', '135 °C'),
  ('CNC1CCc2[nH]c3c(F)cc(F)cc3c2C1 (stereo not given)', '135 to 138 °C'),
  ('Cc1onc(NS(=O)(=O)c2ccccc2-c2ccc(-c3ncco3)cc2CN(C)C(=O)CC(C)(C)C)c1C', '120 to 128 °C');

I'd like to know its melting point. The compound in question is `CCCCc1cc(O)n2nccc2n1`
177 to 178 °C

I'd like to know its melting point. The compound in question is `Cc1nnc2n1-c1ccc([N+](=O)[O-])cc1C(c1ccccc1F)=NC2(C)C`
195 °C

I'd like to know its melting point. The compound in question is `CS(=O)(=O)c1cc(Br)nc(Br)c1`
137 to 138 °C

----------
# key: entry, value: melting point

In the examples that follow, each entry is paired with its recorded melting point.
INSERT INTO assay_data (molecule, quantity_name, result_value) VALUES
  ('Cc1ccc(Cl)cc1N1CN(Cc2ccccc2)CN(C)C1=S', 'melting point', '148 to 149 °C'),
  ('COc1ccc(NS(=O)(=O)c2cc(OC)c(OC)c(OC)c2)cc1O', 'melting point', '145 to 146 °C'),
  ('CCCCCCCCCCCCSC1C(=O)N(c2c(Cl)cc(Cl)cc2Cl)N=C1Nc1cc(OC)c(Cl)cc1Cl (stereo not given)', 'melting point', '100 to 102 °C'),
  ('Cc1nnsc1C(=O)Nc1ccc(-n2nc(C(F)(F)F)c(Cl)c2C2CC2)c(F)c1', 'melting point', '143 to 147 °C'),
  ('Cc1ccc(S(=O)(=O)OC[C@@H](O)Cc2cc3ccccc3[nH]2)cc1', 'melting point', '96 to 97 °C');

Continue with the molecule presented below.
I'd like to know its melting point. The molecule in question is O=C1c2cc(OCc3ccc4cc(F)ccc4n3)ccc2OCC1Oc1cccnc1 (stereo not given)
188 °C

----------
quantity.name: melting point

In the examples that follow, each entry is paired with its recorded melting point.
INSERT INTO results (molecule, quantity_name, result_value) VALUES
  ('CCOC(=O)c1cc2c(C)ccc3c2n1CCO3', 'melting point', '101 to 102 °C'),
  ('CN1NN=C(NC(=O)c2cccc3cccnc23)N1', 'melting point', '222 to 223 °C'),
  ('CCOC(=O)CCC(=O)Nc1n[nH]c2cc(C(F)(F)F)ccc12', 'melting point', '248 °C'),
  ('COC(=O)Cc1c(C)n(-c2ncnc3cc(Cl)ccc23)c2ccc(OC)cc12', 'melting point', '112 to 114 °C'),
  ('CCOCc1nc2c(N)nc3ccccc3c2n1Cc1cc(C)no1', 'melting point', '178 to 180 °C');

I'd like to know its melting point. The molecule in question is `COC(=O)c1ccc2cc(-c3ccc4c(c3)C(C)(C)CCC4(C)C)n(C)c2c1`
156 °C

I'd like to know its melting point. The molecule in question is `COc1cc(N2CCN(C[C@@H](O)CO)CC2)ccc1Nc1ncc2ccc(-c3cc(Cl)ccc3OC)n2n1`
101 to 104 °C

I'd like to know its melting point. The molecule in question is CN1C(=O)C(C(=O)Nc2ccc(F)cc2)S(=O)(=O)c2cc(Cl)ccc21 (stereo not given)
205 °C

----------
# key: entry, value: melting point

In the examples that follow, each entry is paired with its recorded melting point.
INSERT INTO assay_data (molecule, result_value) VALUES
  ('c1ccc(CP(Cc2ccccc2)Cc2ccccc2-c2ccccc2CP(Cc2ccccc2)Cc2ccccc2)cc1', '163 to 167 °C'),
  ('COc1ccc([N+](=O)[O-])c2c1oc1ccccc12', '155 to 156 °C'),
  ('Cc1nc(N2C[C@H](C)N(Cc3ccc(F)cc3)C2=O)sc1C(=O)O', '208 to 210 °C');

I'd like to know its melting point. The molecule in question is `COc1ccccc1Oc1c(O)nc(O)nc1O`
202 to 204 °C

I'd like to know its melting point. The molecule in question is `CCCCCCCSc1nn2c(=O)c(C)c(Cl)nc2s1`
79 to 81 °C

I'd like to know its melting point. The molecule in question is COC(=O)CC(NC(C)=O)c1ccccc1 (stereo not given)
58 to 67 °C

I'd like to know its melting point. The molecule in question is `O=C1C=C(c2c[nH]c3ccc(O)cc23)C(=O)N1`
292 to 298 °C

I'd like to know its melting point. The molecule in question is CN1CCCC(C2=C(C#N)C(c3cccc4nonc34)c3c[nH]nc3N2)C1 (stereo not given)
228 °C

I'd like to know its melting point. The molecule in question is `O=C1C(=O)c2ccccc2C2=C1SCC1(CCN(C(=O)c3ccccc3I)CC1)O2`
165 to 166 °C

I'd like to know its melting point. The molecule in question is CN1C(=O)C(c2ccc(OCCF)cc2)(c2ccc(F)c(-c3cccnc3F)c2)N=C1N (stereo not given)
135 °C

----------
quantity.name: melting point

In the examples that follow, each entry is paired with its recorded melting point.
INSERT INTO assay_data (compound, result_value) VALUES
  ('CC(C)(N)c1ccc(-c2nc(Nc3ccc(-n4cncn4)cc3)ncc2C#N)cc1', '208 to 209 °C'),
  ('CC(C)=CC(=O)N1CCN(C(Cc2cccc(O)c2)c2ccccc2)CC1 (stereo unspecified)', '186 to 187 °C'),
  ('CCOc1cc2ncc(C#N)c(Nc3ccc4c(c3)NCC4)c2cc1OCC', '121 to 124 °C'),
  ('CCOC(=O)c1c(Cn2cncn2)nc2cc3c(cc2c1-c1ccc(OC)c(OC)c1)OCCO3', '138 to 140 °C'),
  ('CN(C(=O)c1ccccn1)c1cccc(F)c1', '75 to 78 °C'),
  ('CCc1nc2c(C)cc(C)nc2n1Cc1ccc(-c2ccccc2-c2c(N(C)C)c(=O)c2=O)cc1', '140 to 142 °C'),
  ('Cc1cccc(-c2nc3ccccn3c2-c2ccnc(-c3ccc(OCc4cn(C)cn4)cc3)c2)n1', '120 °C'),
  ('O=c1c2ccccc2[nH]c2c(OCCCCN(CCCl)CCCl)cccc12', '119 °C');

I'd like to know its melting point. The compound in question is `Cc1c(-c2ccc(Cl)c(Cl)c2)n(-c2ccccc2)c(-c2ccccc2)cc1=O`
188 to 191 °C

----------
quantity.name: melting point

INSERT INTO measurements (compound, quantity_name, result_value) VALUES
  ('O=c1[nH]c2ccc(CCN3CCN(c4cccc5ccccc45)CC3)cc2o1', 'melting point', '282 to 285 °C');

Continue with the compound presented below.
I'd like to know its melting point. The compound in question is `CCc1cc(Nc2ccccc2)cc(CC)c1N`
42 to 44 °C

----------
quantity.name: melting point

In the examples that follow, each entry is paired with its recorded melting point.
INSERT INTO results (compound, result_value) VALUES
  ('CCOC(=O)N(c1ccccc1)c1cc(Cl)ccc1N', '98 to 101 °C'),
  ('ON=Cc1ccc(-c2ccc(Cl)cc2)o1', '139 to 141 °C'),
  ('C[C@@H](Cn1ncc2ccc(O)c(Br)c21)NC(=O)OCc1ccccc1', '40 °C'),
  ('N#Cc1cc(NCc2ccncc2)n(-c2c(Cl)cc(C(F)(F)F)cc2Cl)n1', '> 300 °C'),
  ('O=S1(=O)N=CN(C2CC2)c2c(Cl)cccc21', '159 to 160 °C'),
  ('c1cc2c(cc1-c1nc(OCC3CC3)nc3cc4c(cc13)OCO4)OCO2', '175 to 182 °C'),
  ('CC(C)CNc1ccc(Cl)cc1C(O)c1ccccc1OCc1ccccc1 (stereo not given)', '79 to 80 °C'),
  ('O=C1N=C(N2CCCCCCC2)SC1=Cc1cccc(-c2ccc(O)c(C34CC5CC(CC(C5)C3)C4)c2)c1', '284 to 286 °C'),
  ('O=C(O)CCNC(=O)[C@H](Cc1ccc(-c2ccccc2)cc1)NCP(=O)(O)Oc1ccccc1', '222 to 223 °C');

Continue with the compound presented below.
I'd like to know its melting point. The compound in question is `CC1(C)CC(=O)CCc2ccc(Br)cc21`
67 to 68 °C

----------
# key: entry, value: melting point

In the examples that follow, each entry is paired with its recorded melting point.
INSERT INTO assay_data (compound, quantity_name, result_value) VALUES
  ('Cc1ccc2c([N+](=O)[O-])c(F)ccc2n1', 'melting point', '105 to 108 °C'),
  ('COc1ccc2nc3[nH]cnc(=O)c3cc2c1', 'melting point', '> 300 °C'),
  ('Cc1ccc(C(=O)N2CC3CC2CN3c2nc(-c3ccncc3)cc(=O)n2C)cc1 (stereo unspecified)', 'melting point', '118 to 120 °C'),
  ('Cc1cc(CNC(=O)c2cc(-c3ccc(C(C)(C)C)cc3)nn2CC(=O)c2ccccc2)ccc1OC(C)(C)C(=O)O', 'melting point', '116 °C'),
  ('O=C1Cc2cc(C(=O)O)ccc2N1', 'melting point', '> 300 °C'),
  ('Cn1nc(C(F)(F)F)cc1Oc1cc(Oc2cc(C(F)(F)F)nn2C)nc(Oc2cc(C(F)(F)F)nn2C)c1', 'melting point', '130 °C');

I'd like to know its melting point. The compound in question is `COc1cc(C(=O)C=Cc2ccccn2)cc(OC)c1OC`
94 to 95 °C

I'd like to know its melting point. The compound in question is `CCC(C)=NOC(=NC1CCCCC1)N(C(=O)c1ccccc1)C1CCCCC1`
74 to 78 °C

I'd like to know its melting point. The compound in question is `O=C(NCC12CC3CC(CC(C3)C1)C2)c1cc(-c2ccc(Cl)c(C(=O)O)n2)ccc1Cl`
154 to 159 °C

I'd like to know its melting point. The compound in question is `COc1ccc(CN(CCN(C)C)c2cccc(/C=C/C(=O)O)n2)cc1`
75 to 81 °C

I'd like to know its melting point. The compound in question is `Cc1cc(COc2c(Cl)cc(CCl)cc2Cl)oc(=O)c1`
136 °C

I'd like to know its melting point. The compound in question is `COc1nc(NCCNC(C)C)nc(OC)c1[N+](=O)[O-]`
135 °C

I'd like to know its melting point. The compound in question is `CNC(=O)n1sc(SC)nc1=O`
144 °C

I'd like to know its melting point. The compound in question is `Nc1ccc(Sc2cccc3cnccc23)c([N+](=O)[O-])c1`
222 to 227 °C

I'd like to know its melting point. The compound in question is `CCOC(=O)CNC(=O)[C@H](Cc1ccc(O)cc1)NC(=O)[C@H](CO)NC(=O)OCc1ccccc1`
166 to 169 °C

I'd like to know its melting point. The compound in question is `O=C(O)CCC(=O)c1ccc(CCNS(=O)(=O)CCc2ccc(Cl)cc2)cc1`
112 °C

I'd like to know its melting point. The compound in question is `Nc1ccccc1CN[C@@H](CSCC(=O)O)C(=O)O`
214 °C

I'd like to know its melting point. The compound in question is `CCc1nnc(-c2ccc(O)cc2)n1-c1ccccc1`
275 °C

I'd like to know its melting point. The compound in question is `CCOC(=O)CN(C(=O)CNC(=O)Nc1cccc(C)c1)c1ccccc1`
181 °C

I'd like to know its melting point. The compound in question is NCC(CCO)c1ccc(Cl)c(Cl)c1 (single isomer, unassigned; (+))
80 to 81 °C
